Measured values drawn from paper PMC13376213 for this set.

System name: T1, CYLD CAP-Gly3 domain, GST-tagged, Q9NQC7
T1 chain: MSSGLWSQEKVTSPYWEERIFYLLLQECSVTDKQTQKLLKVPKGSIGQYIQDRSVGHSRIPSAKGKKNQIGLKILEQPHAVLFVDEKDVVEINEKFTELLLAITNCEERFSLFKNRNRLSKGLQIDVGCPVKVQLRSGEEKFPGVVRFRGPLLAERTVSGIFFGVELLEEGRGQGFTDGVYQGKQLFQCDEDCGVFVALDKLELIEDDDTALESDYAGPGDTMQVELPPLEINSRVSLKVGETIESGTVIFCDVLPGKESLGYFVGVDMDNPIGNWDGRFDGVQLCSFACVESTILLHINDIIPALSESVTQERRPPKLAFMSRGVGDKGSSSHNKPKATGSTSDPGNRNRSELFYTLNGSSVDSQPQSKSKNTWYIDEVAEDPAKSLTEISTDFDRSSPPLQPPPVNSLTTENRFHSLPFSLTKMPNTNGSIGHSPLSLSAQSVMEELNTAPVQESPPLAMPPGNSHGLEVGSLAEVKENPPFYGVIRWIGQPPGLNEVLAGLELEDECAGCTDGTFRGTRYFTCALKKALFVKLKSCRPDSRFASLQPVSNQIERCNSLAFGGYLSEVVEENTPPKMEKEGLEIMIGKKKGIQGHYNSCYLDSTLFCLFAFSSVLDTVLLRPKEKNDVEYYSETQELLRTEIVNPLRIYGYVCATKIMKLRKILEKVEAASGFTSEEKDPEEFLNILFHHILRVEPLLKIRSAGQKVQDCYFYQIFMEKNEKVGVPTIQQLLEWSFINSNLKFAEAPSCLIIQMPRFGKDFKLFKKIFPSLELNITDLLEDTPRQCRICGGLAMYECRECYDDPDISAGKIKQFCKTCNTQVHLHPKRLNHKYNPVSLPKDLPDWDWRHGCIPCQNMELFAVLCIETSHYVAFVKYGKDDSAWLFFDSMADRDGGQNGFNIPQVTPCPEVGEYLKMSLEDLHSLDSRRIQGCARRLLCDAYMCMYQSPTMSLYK
Method summary: peptide SPOT array alanine scanning
Reported conditions: chain shown with the change;; parent: est. 0; read off a plot
Metric name: other: signal change (%)

GGAFKDEIYIPLQEED [HECTD4_(3003-3018) peptide, Q9Y4D8 V3005A] ... -70
GGVAKDEIYIPLQEED [HECTD4_(3003-3018) peptide, Q9Y4D8 F3006A] ... -95
GAVFKDEIYIPLQEED [HECTD4_(3003-3018) peptide, Q9Y4D8 G3004A] ... -95

1. GGVFKDEIYIALQEED [HECTD4_(3003-3018) peptide, Q9Y4D8 P3013A]
2. GGVFKDEIYIPLQAED [HECTD4_(3003-3018) peptide, Q9Y4D8 E3016A]
Prompt line: // max by other: signal change (%) over [ 1 , 2 ] Choose, then provide that item's label.
Response line: 2
(2: -25%, 1: -85%)
